Recorded HS [%] (shift from low-spin to high-spin ferric heme) for the following compounds
Target: CYP199A4 (Rhodopseudomonas palustris)
Sequence (Q2IU02 1-410): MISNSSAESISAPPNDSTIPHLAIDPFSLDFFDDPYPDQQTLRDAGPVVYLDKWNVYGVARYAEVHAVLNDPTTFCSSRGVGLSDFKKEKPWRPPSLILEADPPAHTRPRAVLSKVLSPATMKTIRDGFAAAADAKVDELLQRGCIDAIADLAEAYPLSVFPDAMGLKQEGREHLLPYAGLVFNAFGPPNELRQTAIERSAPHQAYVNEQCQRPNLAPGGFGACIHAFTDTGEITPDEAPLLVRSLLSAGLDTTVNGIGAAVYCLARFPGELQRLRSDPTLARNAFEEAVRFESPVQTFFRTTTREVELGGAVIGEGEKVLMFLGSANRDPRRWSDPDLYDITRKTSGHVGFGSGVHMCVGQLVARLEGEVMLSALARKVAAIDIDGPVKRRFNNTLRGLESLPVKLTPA
Assay: Spin state determination by UV-vis spectroscopy
Assay type: binding
Conditions: WT CYP199A4; 50 mM Tris, pH 7.4
measured endpoint: HS [%] (shift from low-spin to high-spin ferric heme)

>>> observed_result("COc1cccc(-c2ccc(C(=O)O)cc2)c1")
"≥95%"
>>> observed_result("COc1ccc(-c2ccc(C(=O)O)cc2)cc1")
"~10%"
>>> observed_result("O=C(O)c1ccc(Cc2ccccc2)cc1")
"90%"

###

target: CYP199A4 (Rhodopseudomonas palustris, UniProt Q2IU02); assay: Dissociation constant determination by UV-vis binding titration
pKd: −log10 of the molar value.
Entries and their pKd values follow.
measured endpoint: pKd

>>> observed_result("O=C(O)c1ccc(C(=O)c2ccccc2)cc1")
5.64
>>> observed_result("COc1cccc(-c2ccc(C(=O)O)cc2)c1")
6.22
>>> observed_result("COc1ccc(-c2ccc(C(=O)O)cc2)cc1")
4.00
>>> observed_result("O=C(O)c1ccc(Cc2ccccc2)cc1")
5.28
